Provide the reported %Inh of each item.
test system: MARK4; conditions: concentration: 1 μM, replicates: in singlicate; n = 1;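 further: KINOMEscan kinase panel screen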
Answers are plain numbers, in %.

# Chem Smiles, Target Entity, %Inh, %
data = [
    ("Nc1ncnc2c1ncn2-c1ccc(Cl)cc1", "MARK4", 13),
    ("Cc1ccccc1COc1cc(-n2cnc3cc(Cl)ccc32)sc1C(N)=O", "MARK4", 8),
    ("Nc1nc(N)c2nc(-c3ccccc3)[nH]c2n1", "MARK4", 11),
    ("CCCNC(=O)Nc1ccc(Oc2ncnc3ccn(C)c23)cc1", "MARK4", 9),
    ("COC(=O)c1c(-c2ccccc2)c2cc(Br)ccc2c(=O)n1Cc1ccc(S(C)(=O)=O)cc1", "MARK4", 1),
]

Q. Given `COc1cc2nccc(Nc3ccc(OCc4ccc(NC(C)=O)cc4)cc3)c2cc1OC.Cl` , state its recorded %Inh.
A. 8

---

tested on: ADCK3; construct: gene CABC1; details: concentration: 1 μM, replicates: in singlicate; n = 1
Measurement Kind: %Inh

Some entries whose results are on file:
# Molecule, %Inh
rows = [
    ("COc1cccc(-n2cnc3c(N)ncnc32)c1 [SKF-97416]", "0%"),
    ("O=C1NC(=O)C(c2ccccc2)=C1Nc1cccc(O)c1 [SB-390534]", "0%"),
    ("CCC(=O)c1c(-c2ccccc2)c2cc(Cl)ccc2c(=O)n1Cc1cc(S(C)(=O)=O)n(CCC(C)(C)O)n1", "27%"),
    ("COc1ccc(-c2cc3c(C)nc(N)nc3n([C@H]3CC[C@H](OCCO)CC3)c2=O)cn1", "0%"),
    ("CCn1c(-c2ccoc2)nc2cnccc21 [SB-733887]", "10%"),
]

Can you give me %Inh for all of these, one by one?
1. CCC(=O)c1c(-c2ccccc2)c2cc(Cl)ccc2c(=O)n1Cc1ccc(C(=O)O)cc1
2. COc1cccc(C2=C(N(C)c3ccccc3)C(=O)NC2=O)c1 [SB-334865]

A.
1: 0%; 2: 4%

---

Provide the reported %Inh of each item.
system: ITK; settings: concentration: 1 μM, replicates: in singlicate; n = 1
Put down the number, then write its unit next to it.

Some entries whose results are on file:
# Chem Smiles, %Inh
records = [
    ("Cc1nnc(-c2ccc(C)c(-c3ccc(C(=O)O)cc3)c2)o1", "4%"),
    ("OCCCNc1nccc(-c2c(-c3cccc(C(F)(F)F)c3)nn3cc(C(F)(F)F)ccc23)n1", "0%"),
    ("Nc1ncnc2c1ncn2-c1ccc(Cl)cc1", "0%"),
    ("O=C(Nc1n[nH]c2nc(-c3ccccc3)c(Br)cc12)C1CC1", "1%"),
]

Can you give me %Inh for all of these, one by one?
1. Nc1n[nH]c2nnc(-c3ccccc3)c(-c3ccccc3)c12
2. Cc1ccc(Oc2ccc(Nc3ncnc4cc[nH]c34)cc2C)cn1

A.
1: 12%; 2: 0%

Can you give me %Inh for all of these, one by one?
1. Cl.c1ccc(Cn2cnc3cc(Nc4ncnc5ccccc45)ccc32)cc1
2. COC(=O)c1c(-c2ccccc2)c2cc(Br)ccc2c(=O)n1Cc1ccc(S(C)(=O)=O)cc1
3. CCC(=O)c1c(-c2ccccc2)c2cc(Cl)ccc2c(=O)n1Cc1cc(S(C)(=O)=O)n(CCC(C)(C)O)n1
4. CCn1c(-c2nonc2N)nc2ccccc21
5. CN1C(=O)C(Nc2ccccc2)=C(c2ccccc2)C1=O
6. Cc1ccccc1COc1cc(-n2cnc3cc(Cl)ccc32)sc1C(N)=O
7. Cc1cccc(-c2nc(Nc3ccc4c(cnn4C)c3)c3ccccc3n2)n1

A.
1. 7%
2. 30%
3. 5%
4. 0%
5. 0%
6. 13%
7. 0%
